# MEASUREMENT_NOTES: Volume of distribution in rat at 1 mg/kg, iv
# Assay type: ADME, organism-based
# Parameters: dose 1 mg/kg, route intravenous
# APPLIED_CONDITIONS: in vivo
RECORDED_METRIC: Vd (L/kg)
Numbers only; they are read as L/kg.

Task item: So what does the record say about Vd for O=S(=O)(c1cccc(F)c1)c1ccc2c3c(oc2c1)C1(CCOCC1)NCC3 ?
Reply: 1.4

Task item: So what does the record say about Vd for CC1(C)NCCc2c1oc1cc(S(=O)(=O)c3cccc(F)c3)ccc21 ?
Reply: 5.5

Task item: So what does the record say about Vd for O=S(=O)(c1cccc(F)c1)c1ccc2c3c(oc2c1)C1(CCCOC1)NCC3 (stereo in doubt; 2) ?
Reply: 4
